Listed below: koff values for each entry.
Biological target: T1, recombinant human CD70 (AviTag, polyhistidine tag and chicken tenascin trimerization domain fused to the … (chicken; human, UniProt P10039 110-139, limits assumed)
T1 construct: domain: trimerization domain; Expressed in Expi293, purified by IMAC and SEC; Copies 3 is inferred from the trimerization domain; not shown: AviTag; polyhistidine tag
T1 sequence: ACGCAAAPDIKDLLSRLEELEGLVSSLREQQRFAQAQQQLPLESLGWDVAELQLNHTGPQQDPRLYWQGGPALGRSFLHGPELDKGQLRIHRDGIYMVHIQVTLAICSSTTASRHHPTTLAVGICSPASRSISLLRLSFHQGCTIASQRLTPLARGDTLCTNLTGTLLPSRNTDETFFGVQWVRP
Experiment: SPR (Biacore 8K, 37 C): CD70 captured via anti-AviTag antibody on C1 chip, scFv-Fc as analyte; 1:1 Langmuir fit
Express the result in s⁻¹ but write the number alone.

1. 4F11 anti-CD70 scFv-Fc fusion (Fc fusion, scFv-Fc expressed in Expi293; not shown: part of the hinge and Fc from a modified human IgG2) QVTLKESGPVLVKPTETLTLTCTVSGFSLSNARMGVTWIRQPPGKALEWLAHIFSNDEKSYSTSLKSRLTISKDTSKTQVVLTMTNMDPVDTATYYCARIRDYYDISSYYDYWGQGTLVSVSSGGGGSGGGGSGGGGSGGGGSDIQMTQSPSAMSASVGDRVTITCRASQDISNYLAWFQQKPGKVPKRLIYAASSLQSGVPSRFSGSGSGTEFTLTISSLLPEDFATYYCLQLNSFPFTFGGGTKVEIN ... 0.0016
2. P13F04 anti-CD70 scFv-Fc fusion (Fc fusion, scFv-Fc expressed in Expi293; not shown: part of the hinge and Fc from a modified human IgG2) QVQLVQSGAEVKKPGSSVKVSCKASGGTFSSYAISWVRQAPGQGLEWMGEIIPIFGTASYAQKFQGRVTITADESTSTAYMELSSLRSEDTAVYYCARAGWDDSWFDYWGQGTLVTVSSGGGGSGGGGSGGGGSGGGGSELQSVLTQPPSASGTPGQRVTISCSGSNSNIGTNYVSWYQQLPGTAPKLLIYRSSRRPSGVPDRFSGSKSGTSASLAISGLRSEDEADYYCAAWDGSLSGHWVFGTGTKLTVL ... 0.02
3. 12D6 anti-CD70 scFv-Fc fusion (Fc fusion, scFv-Fc expressed in Expi293; not shown: part of the hinge and Fc from a modified human IgG2) QVQLQESGPGLVKPSQTLSLTCTVSGGSISSDAYYWSWIRQHPGKGLEWIGYMYYSGITYYNPSLKSRVTISVDTSKNQFSLKLSSVTAADTAVYYCARDFGWYFDLWGRGTLVTVSSGGGGSGGGGSGGGGSGGGGSDIQMTQSPSSLSASVGDRVTITCRASQDISNYLAWYQQKPGKVPKLLIYAASTLHSGVPSRFSGSGSGTDFTLTISSLQPDDFAAYYCQKYNSAPRTFGQGTKVEIK ... 0.00194
4. 11C1 anti-CD70 scFv-Fc fusion (Fc fusion, scFv-Fc expressed in Expi293; not shown: part of the hinge and Fc from a modified human IgG2) QVQLQESGPGLVKPSETLSLNCTVSGGSISYYYWTWIRQPPGKGLEWIGHVIYSGTTNYNPSLKSRVTISVDTSKNQFSLKLNSVTAADTAVYYCVRAEGSLDAFDLWGQGTMVTVSSGGGGSGGGGSGGGGSGGGGSDIQMTQSPSILSASVGDRVTITCRASQSVSSWLAWYQQKPGKAPKVLIYKASSLESGVPSRFSGTGSGTEFTLTISSLQSDDFATYYCQQYNTYSHTFGQGTKLEIK ... 0.000186
5. P08G02 anti-CD70 scFv-Fc fusion (Fc fusion, scFv-Fc expressed in Expi293; not shown: part of the hinge and Fc from a modified human IgG2) EVQLVQSGAEVKKPGESLKISCKGSGYTFPSSWIGWVRQMPGKGLEWMGIIYPDTSHTRYSPSFQGQVTISADKSISTAYLQWSSLKASDTAMYYCARASYFDRGTGYSSWWMDVWGQGTLVTVSSGGGGSGGGGSGGGGSGGGGSELDIQMTQSPSSLSASVGDRVTITCRASQSIYDYLHWYQQKPGKAPKLLIYDASNLQSGVPSRFSGSGSGTDFTLTISSLQPEDFATYYCQQSYTTPLFTFGQGTKVEIK ... 0.00788

# ---- query binder ----
// field: koff; key: 10A1 anti-CD70 scFv-Fc fusion (Fc fusion, scFv-Fc expressed in Expi293; not shown: part of the hinge and Fc from a modified human IgG2) QVQLQESGPGLVKPSETLSLTCTVSGGSISYYYWTWIRQPPGKGLEWIGHIYYSGSTNYNPSLKSRVTISIDTSKNLFSLKLSSVTAADTAVYYCARAEGSLDAFDFWGQGTMVTVSSGGGGSGGGGSGGGGSGGGGSDIQMTQSPSTLSASVGDRVTITCRASQSISTWLAWYQQKPGKAPKVLIYKASSLESGVPSRFSGSGSGTEFILTINSLQPDDFASYYCQQYKSYSHTFGQGTKLEIK ; value = 0.000773
